# measuredOn: Fes (UniProt P07332)
# Sequence (P07332 whole entry, looked up): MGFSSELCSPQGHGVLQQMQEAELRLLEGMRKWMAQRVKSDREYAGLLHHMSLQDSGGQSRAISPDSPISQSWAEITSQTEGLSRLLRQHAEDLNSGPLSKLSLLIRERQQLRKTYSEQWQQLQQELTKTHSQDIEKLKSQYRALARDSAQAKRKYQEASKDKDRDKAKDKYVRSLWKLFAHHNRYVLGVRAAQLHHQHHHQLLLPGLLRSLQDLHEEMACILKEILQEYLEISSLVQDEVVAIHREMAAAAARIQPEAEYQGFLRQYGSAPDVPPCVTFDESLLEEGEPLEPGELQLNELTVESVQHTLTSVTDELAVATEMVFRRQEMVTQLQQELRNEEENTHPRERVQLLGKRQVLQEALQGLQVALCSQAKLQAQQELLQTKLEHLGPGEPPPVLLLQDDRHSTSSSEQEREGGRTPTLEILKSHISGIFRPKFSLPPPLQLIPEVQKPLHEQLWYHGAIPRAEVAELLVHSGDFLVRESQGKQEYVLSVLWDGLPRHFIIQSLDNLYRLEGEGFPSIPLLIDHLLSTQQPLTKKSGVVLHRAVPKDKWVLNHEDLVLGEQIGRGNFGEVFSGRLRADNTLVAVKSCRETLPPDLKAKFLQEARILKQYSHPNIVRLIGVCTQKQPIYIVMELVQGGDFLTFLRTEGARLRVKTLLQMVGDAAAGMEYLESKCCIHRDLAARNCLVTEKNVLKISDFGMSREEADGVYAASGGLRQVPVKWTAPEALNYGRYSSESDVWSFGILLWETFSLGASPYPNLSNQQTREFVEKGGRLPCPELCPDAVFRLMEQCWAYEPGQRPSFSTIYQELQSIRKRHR
# protocolDescription: phosphorylation enrichment, bacterial display (enrichment ratio); higher = better substrate or ligand; peptides without Tyr show the background;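 note: 11-residue human phosphosite peptides and single-mutation variants displayed on the E. coli surface, counted by deep sequencing, each peptide's frequency after selection divided by its frequency in the unselected input library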;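 note: frequency after pTyr selection over input frequency; kinase dosed for 20-30% of maximal phosphorylation in three min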
Reported values of phosphorylation enrichment for individual entries
reportedEndpoint: phosphorylation enrichment

NKEAICSGFIR [SMCHD1_Y283_Y283C_YF] :: 0.952
KKARAYGPGIE [FLNA_Y287] :: 0.446
MEKEKYVSFIS [JMJD1C_Y596_YF] :: 0.832
RRESPYGGGGG [FUS_Y526_R524S] :: 0.611
QYNPEYVQQAS [LRRC7_Y1058_H1054Y] :: 1.28
PPDGEYFTLQI [TP53_Y327_L323P] :: 1.74
EAIAKYDFKAT [GRB2_Y7] :: 0.827
TLSGIYQFNIA [FOXL2_Y81_I84N_YF] :: 0.741
KRIETYFSKNY [PLP1_Y50_L46R] :: 0.748
CSTIHYNYMCN [TP53_Y234_T230S] :: 0.758
